Numbers sourced from patent US11566007B2.

Target: KRAS G12D (Homo sapiens (Human), UniProt P01116+P62937, G12D)
Sequence (P01116-2 other isoform, or with tags, fused parts or gaps G12D): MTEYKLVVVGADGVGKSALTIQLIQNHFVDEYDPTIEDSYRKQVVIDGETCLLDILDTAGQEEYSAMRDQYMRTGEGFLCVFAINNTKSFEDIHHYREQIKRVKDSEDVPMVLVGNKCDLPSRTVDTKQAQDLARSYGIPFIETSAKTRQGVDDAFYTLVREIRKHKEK
Sequence (P62937 whole entry): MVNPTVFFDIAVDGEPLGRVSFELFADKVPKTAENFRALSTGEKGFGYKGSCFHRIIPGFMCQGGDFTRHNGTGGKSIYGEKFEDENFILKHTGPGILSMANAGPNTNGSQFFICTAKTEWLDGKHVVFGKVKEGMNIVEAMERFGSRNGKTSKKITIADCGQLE
Assay: Ras-Raf (BRAF RBD) disruption / FRET / MOA assay, KRAS G12D
Format: biochemical
Conditions: Ras-Raf disruption/FRET/MOA assay; class symbols; read-out: KRAS G12D FRET data IC50
Procedure: The purpose of this biochemical assay is to measure the ability of test compounds to facilitate ternary complex formation between a nucleotide-loaded Ras isoform and cyclophilin A; the resulting ternary complex disrupts binding to a BRAF^RBD construct, inhibiting Ras signaling through a RAF effector. Compound is present in plate wells as a 10-point 3-fold dilution series starting at a final concentration of 30 μM. […]
pIC50: −log10 of the molar value.
quantity: pIC50

In the examples that follow, each entry is paired with its recorded pIC50.
C=CC(=O)N(C)[C@H]1CC1N(C)C(=O)N(C)[C@H](C(=O)N[C@H]1Cc2nc(cs2)-c2ccc3c(c2)c(c(-c2cccnc2[C@H](C)OC)n3CC)CC(C)(C)COC(=O)[C@@H]2CCCN(N2)C1=O)C(C)C (some centres unmarked); 5.00 to 6.00
CCn1c(-c2cccnc2COC)c2c3cc(ccc31)-c1cc(O)cc(c1)C[C@H](NC(=O)[C@H](C(C)C)N(C)C(=O)[C@H]1CCN(C(=O)C#CC3(N(C)C)CC3)C1)C(=O)N1CCC[C@H](N1)C(=O)OCC(C)(C)C2; < 5.00
CCn1c(-c2cnccc2C(C)C)c2c3cc(ccc31)-c1cc(O)cc(c1)C[C@H](NC(=O)[C@H](C(C)C)N(C)C(=O)[C@H]1CCN(C(=O)C#CCN(C)C)C1)C(=O)N1CCC[C@H](N1)C(=O)OCC(C)(C)C2; 5.00 to 6.00
C=CC(=O)N1CCC2(CC1)CCN([C@H](C(=O)N[C@H]1Cc3cc(O)cc(c3)-c3ccc4c(c3)c(c(-c3cccnc3[C@H](C)OC)n4CC)CC(C)(C)COC(=O)[C@@H]3CCCN(N3)C1=O)C(C)C)C2=O (atropisomer, axis not shown); 5.00 to 6.00
CCn1c(-c2cccnc2[C@H](C)OC)c2c3cc(ccc31)-c1cnc(o1)C[C@H](NC(=O)[C@H](C(C)C)N(C)C(=O)[C@H]1CCN(C(=O)C#CC(C)(C)N(C)C)C1)C(=O)N1CCC[C@H](N1)C(=O)OCC(C)(C)C2 (atropisomer, axis not shown); < 5.00
C=CC(=O)N1CC[C@H](C(=O)N(C)[C@H](C(=O)N[C@H]2Cc3cc(O)cc(c3)-c3ccc4c(c3)c(c(-c3cncc5c3[C@@H](OC)CC5)n4CC)CC(C)(C)COC(=O)[C@@H]3CCCN(N3)C2=O)C(C)C)C1; 6.00 to 7.00

// map CCn1c(-c2cccnc2[C@H](C)OC)c2c3cc(ccc31)-c1cc(O)cc(c1)C[C@H](NC(=O)[C@H](C(C)C)N(C)C(=O)C1CN(C(=O)/C=C/CN(C)C)C1)C(=O)N1CCC[C@H](N1)C(=O)OCC(C)(C)C2 (atropisomer, axis not shown) to recorded pIC50 (system: KRAS G12D (Homo sapiens (Human), UniProt P01116+P62937, G12D))
6.00 to 7.00

// map C=CC(=O)N1CCO[C@H]2CN(C(=O)N(C)[C@H](C(=O)N[C@H]3CC4=NN=C(O4)c4ccc5c(c4)c(c(-c4cccnc4[C@H](C)OC)n5CC(F)(F)F)CC(C)(C)COC(=O)[C@@H]4CCCN(N4)C3=O)C(C)C)C[C@H]21 (atropisomer, axis not shown) to recorded pIC50 (system: KRAS G12D (Homo sapiens (Human), UniProt P01116+P62937, G12D))
< 5.00
